system: developing Xenopus embryos; assay: Xenopus embryo angiogenesis, in situ hybridization for erg/apinr and kdr:GFP imaging; type: in vivo, Xenopus laevis; details: Xenopus in vivo, at dosages at which TBZ reduces angiogenesis (FIG. 14)
quantity: anti-angiogenic activity of other benzimidazoles

See these solved cases before continuing.
>  <structure_smiles>
c1ccc2[nH]cnc2c1

>  <result_value>
not anti-angiogenic

$$$$
>  <structure_smiles>
O=C(O)c1cccc2[nH]cnc12

>  <result_value>
not anti-angiogenic

$$$$
>  <structure_smiles>
Clc1ccc2nc(C(Cl)(Cl)Cl)[nH]c2c1

>  <result_value>
not anti-angiogenic

$$$$
>  <structure_smiles>
ClCc1nc2ccccc2[nH]1

>  <result_value>
not anti-angiogenic

$$$$
>  <structure_smiles>
Nc1ccc2[nH]c(C(F)(F)F)nc2c1

>  <result_value>
not anti-angiogenic

$$$$

Please examine the following record next.
Input: Could you share which anti-angiogenic activity of other benzimidazoles value was measured for Nc1nc2ccc(C(=O)c3ccc(F)cc3)cc2[nH]1 ?
Output: not anti-angiogenic
